Ref: patent US20160052926A1

- measurement target: Recombinant human FGFR2 (Homo sapiens)
- procedure details: Transcreener Kinase Assay of FGFR2
- Format: biochemical
- run parameters: read-out: FGFR2 (FP) IC50
pIC50: −log10 of the molar value.
parameter measured: pIC50

>>> df
                               entry_smiles                      measurement_target  measurement
0  CCN1CCC[C@H](n2cc(Nc3ncc(CCc4cc(C(=O)NC)cc(OC)c4F)cn3)cn2)C1  Recombinant human FGFR2 (Homo sapiens)         8.22
1  CONC(=O)c1cc(CCc2cnc(Nc3ccc(N4C[C@@H](C)N[C@@H](C)C4)c(F)c3)nc2)cc(OC)c1  Recombinant human FGFR2 (Homo sapiens)         8.52
2  CNC(=O)c1cc(COc2cnc(Nc3ccc(N4CCNCC4)cc3)nc2)c(F)c(OC)c1  Recombinant human FGFR2 (Homo sapiens)         8.30
3  CNC(=O)c1cc(CCc2cnc(Nc3cnn(C4CC4)c3)nc2)c(Cl)c(OC)c1  Recombinant human FGFR2 (Homo sapiens)         8.22
4  CCN1CCN(c2ccc(Nc3ncc(CCc4cc(OC)cc(C(=O)NOC)c4)cn3)cc2)C[C@H]1C  Recombinant human FGFR2 (Homo sapiens)         8.30
5  CONC(=O)c1cc(CCc2cnc(Nc3ccn(C)n3)nc2)cc(OC)c1  Recombinant human FGFR2 (Homo sapiens)         7.57
6  CONC(=O)c1cc(CCc2cnc(Nc3ccc(F)cc3)nc2)cc(OC)c1  Recombinant human FGFR2 (Homo sapiens)         8.05
7  CNC(=O)c1cc(CCc2cnc(Nc3cnn(CCN4CCCC4)c3)nc2)c(F)c(OC)c1  Recombinant human FGFR2 (Homo sapiens)         7.72
8  CNC(=O)c1cc(CCc2cnc(Nc3cnn(C4CCC4)c3)nc2)c(Cl)c(OC)c1  Recombinant human FGFR2 (Homo sapiens)         8.30
9  CNC(=O)c1cc(CCc2cnc(Nc3cnn(C4CCC4)c3)nc2)c(F)c(OC)c1  Recombinant human FGFR2 (Homo sapiens)         8.30

1: CNC(=O)c1cc(CCc2cnc(Nc3cnn(C4COC4)c3)nc2)c(F)c(OC)c1
2: CCN1CCN(c2ccc(Nc3ncc(/C=C/c4cc(OC)cc(C(=O)NOC)c4)cn3)cc2)CC1
3: CONC(=O)c1cc(CCc2cnc(Nc3ccc4nccn4c3)nc2)cc(OC)c1
4: CONC(=O)c1cc(CCc2cnc(Nc3cnn(CCO)c3)nc2)cc(OC)c1
Rank entries according to their pIC50, from the largest number down. Return the labels ranked in the requested order, please.
4, 1, 2, 3
(4: 8.52, 1: 8.30, 2: 8.10, 3: 7.55)

I: CCN1CCN(c2ccc(Nc3ncc(CCc4cc(OC)cc(C(=O)NOC)c4)cn3)cn2)CC1
II: CNC(=O)c1cc(CCc2cnc(Nc3cnn(C4CCNCC4)c3)nc2)c(Cl)c(OC)c1
Of the two listed items, I and II , which carries the larger pIC50 figure? Selection: enter the item's label.
I
(I: 8.40, II: 8.10)

---

- measurement target: Recombinant human FGFR2 (Homo sapiens, UniProt P21802)
- Sequence (P21802 22-821): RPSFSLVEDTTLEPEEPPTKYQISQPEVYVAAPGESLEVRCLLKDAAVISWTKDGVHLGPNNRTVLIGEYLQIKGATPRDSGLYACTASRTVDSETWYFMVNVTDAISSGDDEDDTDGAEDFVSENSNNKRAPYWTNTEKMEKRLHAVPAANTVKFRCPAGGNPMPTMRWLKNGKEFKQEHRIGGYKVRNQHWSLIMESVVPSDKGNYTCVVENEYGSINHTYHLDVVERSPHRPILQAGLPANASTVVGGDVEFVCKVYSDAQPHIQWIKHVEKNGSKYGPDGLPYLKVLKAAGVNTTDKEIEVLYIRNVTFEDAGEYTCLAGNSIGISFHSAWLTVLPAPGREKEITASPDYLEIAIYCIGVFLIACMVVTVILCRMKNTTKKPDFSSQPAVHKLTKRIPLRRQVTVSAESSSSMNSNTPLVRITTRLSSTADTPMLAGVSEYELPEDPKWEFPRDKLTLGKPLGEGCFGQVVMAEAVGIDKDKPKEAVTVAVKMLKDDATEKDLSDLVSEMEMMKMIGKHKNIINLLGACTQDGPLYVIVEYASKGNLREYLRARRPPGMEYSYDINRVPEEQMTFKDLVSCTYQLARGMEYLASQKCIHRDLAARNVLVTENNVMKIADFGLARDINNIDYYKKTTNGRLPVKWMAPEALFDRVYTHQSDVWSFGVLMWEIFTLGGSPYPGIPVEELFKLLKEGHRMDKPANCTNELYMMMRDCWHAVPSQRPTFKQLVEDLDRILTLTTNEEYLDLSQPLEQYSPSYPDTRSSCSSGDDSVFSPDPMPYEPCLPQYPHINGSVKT
- procedure details: Transcreener Kinase Assay of FGFR2
- Type: biochemical
- run parameters: read-out: FGFR2 (FP) IC50
pIC50: −log10 of the molar value.
parameter measured: pIC50

                               entry_smiles  measurement
0  CNC(=O)c1cc(CCc2cnc(Nc3ccc(N4C[C@@H](C)N[C@@H](C)C4)nc3)nc2)c(Cl)c(OC)c1         7.96
1  CNC(=O)c1cc(CCc2cnc(Nc3cnn(C(C)C)c3)nc2)c(F)c(OC)c1         8.15
2  CNC(=O)c1cc(COc2cnc(Nc3ccc(N4C[C@@H](C)N[C@@H](C)C4)nc3)nc2)c(Cl)c(OC)c1         8.15
3  CNC(=O)c1cc(CCc2cnc(Nc3cnn(C)c3)nc2)c(F)c(OC)c1         8.10

---

- measurement target: Recombinant human FGFR2 (Homo sapiens)
- procedure details: Transcreener Kinase Assay of FGFR2
- Assay type: biochemical
- run parameters: read-out: FGFR2 (FP) IC50
parameter measured: IC50 (nM)

Past entries and their recorded results:
>>> print(df.to_string())
                                   compound  measurement
0  CCN1CCN(c2cc(Nc3ncc(CCc4cc(OC)cc(C(=O)NOC)c4)cn3)ccn2)CC1 [Compound 76]            4
1  CONC(=O)c1cc(CCc2cnc(Nc3ccc(N4CCOCC4)cc3)nc2)cc(OC)c1 [Compound 37]            7
2  CCN1CCN(c2ccc(Nc3ncc(CCc4cc(C(=O)NC)cc(OC)c4F)cn3)cc2)C[C@H]1C [Compound 53]            4
3  CNC(=O)c1cc(CCc2cnc(Nc3cnn(CC(C)C)c3)nc2)c(F)c(OC)c1 [Compound 118]           12

1: CONC(=O)c1cc(CCc2cnc(Nc3cccc(N4C[C@@H](C)N[C@@H](C)C4)c3)nc2)cc(OC)c1 [Compound 18]
2: CCONC(=O)c1cc(CCc2cnc(Nc3ccc(N4CCN(CC)CC4)cc3)nc2)cc(OC)c1 [Compound 50]
3: CNC(=O)c1cc(CCc2cnc(Nc3ccn(C)c(=O)c3)nc2)c(F)c(OC)c1 [Compound 93]
# ascending order, key=IC50 Write the labels in rank order as requested.
1, 3, 2

I: CNC(=O)c1cc(CCc2cnc(Nc3ccc4nc(C)oc4c3)nc2)c(F)c(OC)c1 [Compound 34]
II: CNC(=O)c1cc(CCc2cnc(Nc3ccc(C(=O)N4CCN(C)CC4)cc3)nc2)c(Cl)c(OC)c1 [Compound 90]
Parameter metric = IC50. Return the lower-valued option from I and II . Output the label that corresponds to your choice.
II
(II: 5 nM, I: 13 nM)

a: CNC(=O)c1cc(CCc2cnc(Nc3ccc(CN4CCN(C)CC4)cc3)nc2)c(F)c(OC)c1 [Compound 99]
b: CNC(=O)c1cc(CCc2cnc(Nc3cnn(C)c3C)nc2)c(F)c(OC)c1 [Compound 105]
Out of a and b , name the one with the higher IC50. // caller expects the label of the chosen entry
b

A: CNC(=O)c1cc(CCc2cnc(Nc3ccc(N4CCNCC4)cc3)nc2)c(Cl)c(OC)c1 [Compound 196]
B: CNC(=O)c1cc(CCc2cnc(Nc3cnn(Cc4ccccn4)c3)nc2)c(F)c(OC)c1 [Compound 142]
Identify the item whose IC50 is the smaller number: A or B Provide the label of your selected option as the answer.
A
(A: 5 nM, B: 11 nM)

---

- Tested on: RT-112
- procedure details: Cellular Proliferation Assay (Cell Counting Kit-8), RT-112
- Format: cell-based
- run parameters: Homo sapiens, RT-112 cells, 72 hours
As shown below, each of these compounds has a reported pIC50 value.
Note: pIC50 values are expressed as the negative base-10 logarithm of concentration in M.

Observe how each entry below is paired with its result.
                                   compound  measurement
0  CNC(=O)c1cc(CCc2cnc(Nc3ccc(N4CCOCC4)cc3)nc2)c(F)c(OC)c1 [Compound 11]         7.47
1  CNC(=O)c1cc(CCc2cnc(Nc3ccc(N4CCNCC4)cc3)nc2)c(Cl)c(OC)c1 [Compound 196]         7.70
2  CCN1CC[C@@H](n2cc(Nc3ncc(CCc4cc(C(=O)NC)cc(OC)c4F)cn3)cn2)C1 [Compound 171]         6.18
3  CCN(CC)CCn1cc(Nc2ncc(CCc3cc(C(=O)NC)cc(OC)c3Cl)cn2)cn1 [Compound 86]         7.92
4  CCn1cc(Nc2ncc(/C=C/c3cc(C(=O)NC)cc(OC)c3Br)cn2)cn1 [Compound 3]         6.43

Fill in reported pIC50 for this entry: CNC(=O)c1cc(CCc2cnc(Nc3ccc(CN4CCN(C)CC4)cc3)nc2)c(F)c(OC)c1 [Compound 99]
6.96

---

- measurement target: Recombinant human FGFR1 (Homo sapiens, UniProt P11362)
- Sequence (P11362 22-822): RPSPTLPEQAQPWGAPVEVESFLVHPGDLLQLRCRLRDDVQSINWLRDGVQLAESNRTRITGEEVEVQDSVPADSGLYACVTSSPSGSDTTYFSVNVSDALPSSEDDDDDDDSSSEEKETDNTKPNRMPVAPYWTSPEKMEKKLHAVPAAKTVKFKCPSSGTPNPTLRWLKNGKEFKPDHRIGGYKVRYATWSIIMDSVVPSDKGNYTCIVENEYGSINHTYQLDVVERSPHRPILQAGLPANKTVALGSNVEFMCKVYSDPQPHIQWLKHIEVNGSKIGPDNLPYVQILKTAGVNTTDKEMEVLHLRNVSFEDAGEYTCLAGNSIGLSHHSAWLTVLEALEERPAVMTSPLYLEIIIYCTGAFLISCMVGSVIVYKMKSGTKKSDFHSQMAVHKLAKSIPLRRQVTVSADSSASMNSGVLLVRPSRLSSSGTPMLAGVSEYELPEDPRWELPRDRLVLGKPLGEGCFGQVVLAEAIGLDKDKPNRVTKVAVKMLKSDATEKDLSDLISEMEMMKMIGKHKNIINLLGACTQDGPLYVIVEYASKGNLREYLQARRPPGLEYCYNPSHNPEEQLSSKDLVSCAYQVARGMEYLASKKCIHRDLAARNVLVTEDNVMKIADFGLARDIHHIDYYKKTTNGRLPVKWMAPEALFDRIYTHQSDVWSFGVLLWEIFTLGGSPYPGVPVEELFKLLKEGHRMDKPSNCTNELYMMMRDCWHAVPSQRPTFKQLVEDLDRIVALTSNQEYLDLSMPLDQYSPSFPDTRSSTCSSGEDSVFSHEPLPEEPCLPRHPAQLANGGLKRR
- procedure details: Transcreener Kinase Assay of FGFR1
- Type: biochemical
- run parameters: read-out: FGFR1 (FP) IC50
- Procedure: Transcreener Kinase Assay of FGFR1 Prepare Solution • Compounds were solved in DMSO and were diluted with assay buffer to 5 folds of final concentration keeping the DMSO concentration at 5%. […] • [ADP] in Compound well represents the ADP concentration in compound well. • [ADP] in Positive control well represents the ADP concentration in 5% DMSO well • Conversion of mP value to ADP concentration is calculated based on the formula which determined by standard curve. […]
parameter measured: IC50 (nM)

Worked cases, answers included:
>>> print(df.to_string())
                               entry_smiles  parameter_measured  measurement
0  CNC(=O)c1cc(CCc2cnc(Nc3cnn([C@H]4CCNC4)c3)nc2)c(F)c(OC)c1                IC50           17
1  CNC(=O)c1cc(COc2cnc(Nc3cnn(C)c3)nc2)c(Cl)c(OC)c1                IC50            7
2  CONC(=O)c1cc(CCc2cnc(Nc3ccc(OCCN4CCCC4)cc3)nc2)cc(OC)c1                IC50           16
3  CCN1CCN(c2ccc(Nc3ncc(CCc4cc(C(=O)NC5CC5)cc5occc45)cn3)cc2)CC1                IC50          143
4  CNC(=O)c1cc(COc2cnc(Nc3ccc(N4C[C@@H](C)N[C@@H](C)C4)c(C)c3)nc2)c(F)c(OC)c1                IC50           14

I: CNC(=O)c1cc(CCc2ccc(Nc3cnn(C)c3)nc2)c(F)c(OC)c1
II: CNC(=O)c1cc(CCc2cnc(Nc3cnn([C@@H]4CCOC4)c3)nc2)c(F)c(OC)c1
III: CNC(=O)c1cc(CCc2cnc(Nc3cnn([C@@H]4CCNC4)c3)nc2)c(F)c(OC)c1
IV: CONC(=O)c1cc(CCc2cnc(Nc3ccc(N4C[C@@H](C)N[C@@H](C)C4)c(F)c3)nc2)cc(OC)c1
Exam item: list the entries in increasing order of IC50. Your reply should list the labels following the order given in the request.
IV, II, III, I
(IV: 6 nM, II: 9 nM, III: 17 nM, I: 32 nM)

I: CCN1CCN(c2ccc(Nc3ncc(CCc4cc(C(=O)NC5CC5)cc(OC)c4F)cn3)cc2)CC1
II: CNC(=O)c1cc(CCc2cnc(Nc3ccc4nc(C)oc4c3)nc2)c(F)c(OC)c1
III: CCn1cc(Nc2ncc(CCc3cc(C(=O)NC)cc(OC)c3Cl)cn2)cn1
IV: CCN1CCN(c2ccc(Nc3ncc(CCc4cc(C(=O)NC)cc5occc45)cn3)cc2)CC1
Descending sort on IC50 required. Lab note: record answer as labels in requested order.
IV, II, III, I
